Provide the reported IC50 of each item.
# TEST SYSTEM: Phosphodiesterase 4 (Homo sapiens, UniProt P27815+Q08499+Q07343+Q08493)
# TEST DETAILS: Inhibition of human phosphodiesterase 4 from U937 cells
# Format: cell-based
# CONDITION SUMMARY: u-937
Numbers only, in nM.

Value sought for every listed compound: IC50.
1. COc1ncc(C(=O)Nc2c(Cl)c[n+]([O-])cc2Cl)c2cc(C3(OC)CCN(C(=O)OC(C)(C)C)CC3)oc12
2. COc1ncc(C(=O)Nc2c(Cl)c[n+]([O-])cc2Cl)c2cc(C3CCOCC3)oc12
3. COc1ncc(C(=O)Nc2c(Cl)c[n+]([O-])cc2Cl)c2cc(-c3cccnc3)oc12
4. CCc1cc2c(C(=O)Nc3c(F)cccc3F)cnc(OC)c2o1
5. CCc1cc2c(C(=O)Nc3cc[n+]([O-])cc3Cl)cnc(OC)c2o1
6. CCc1cc2c(C(=O)Nc3c(C)cc(C#N)cc3Cl)cnc(OC)c2o1
7. CCc1cc2c(C(=O)Nc3cc[n+]([O-])cc3C)cnc(OC)c2o1

1: 48; 2: 47; 3: 62; 4: 66; 5: 120; 6: 230; 7: 120

Value source: ChEMBL document CHEMBL1135052
